For each of the compounds below, state its IC50.
- targetEntity: Beta Secretase enzyme (BACE1) (Homo sapiens)
- Sequence (P56817 46-501): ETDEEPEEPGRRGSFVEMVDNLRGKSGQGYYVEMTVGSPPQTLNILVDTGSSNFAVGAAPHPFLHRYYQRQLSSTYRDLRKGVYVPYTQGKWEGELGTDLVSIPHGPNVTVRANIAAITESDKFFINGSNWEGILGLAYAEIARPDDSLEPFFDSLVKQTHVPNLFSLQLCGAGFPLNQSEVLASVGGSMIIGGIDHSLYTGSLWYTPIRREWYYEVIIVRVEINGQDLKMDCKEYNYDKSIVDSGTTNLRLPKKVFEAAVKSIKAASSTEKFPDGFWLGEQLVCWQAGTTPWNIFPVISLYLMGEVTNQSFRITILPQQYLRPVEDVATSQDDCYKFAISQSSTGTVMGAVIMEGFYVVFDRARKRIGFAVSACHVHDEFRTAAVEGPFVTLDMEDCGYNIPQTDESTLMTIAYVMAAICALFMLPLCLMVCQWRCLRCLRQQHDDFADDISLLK
- protocolText: In vitro enzymatic BACE FRET assay
- Type: biochemical
- conditionDetails: average IC50, enzyme assay; read-out: BACE1 FRET assay IC50
One number for each entry, in nM.

Example results:
- compound: "CC1(C)C(N)=N[C@](C)(c2cc(NC(=O)c3ccc(Cl)cc3)ccc2F)CS1(=O)=O [Example 212]"
  IC50 [nM]: 10.2
- compound: "CC1(C)C(N)=N[C@](C)(c2cc(Sc3ccccn3)ccc2F)CS1(=O)=O [Example 163]"
  IC50 [nM]: 3250
- compound: "CC1(C)C(N)=N[C@](C)(c2cc(Oc3ncccc3F)ccc2F)CS1(=O)=O [Example 274]"
  IC50 [nM]: 37.4
- compound: "CC(C)c1cc(Cl)cnc1C(=O)Nc1ccc(F)c([C@]2(CF)CS(=O)(=O)C(C)(C)C(N)=N2)c1 [Example 198, 2,2,2-trifluoroacetate]"
  IC50 [nM]: 7.99

Each compound below has a recorded value; state its IC50.
1. CC1(C)C(N)=N[C@](C)(c2cc(Oc3nccc(-c4ccccc4)c3C#N)ccc2F)CS1(=O)=O [Example 293]
2. CC1(C)C(N)=N[C@](C)(c2cc(Nc3ncc(C#C[Si](C)(C)C)c4cc(Cl)cnc34)ccc2F)CS1(=O)=O [Example 189]
3. COc1cnc2c(Nc3ccc(F)c([C@@]4(C)N=C(N)C5(CCC5)S(=O)(=O)C4F)c3)nccc2n1 (some centres unmarked) [Example 232]
4. CC1(C)C(N)=N[C@](C)(c2cc(Sc3ncccc3F)ccc2F)CS1(=O)=O [Example 439]

836
6.8
13.1
375
